Entries annotated with measured Growth Inhibition (%)
Test system: Candida albicans IFO 1270
measurement_description: Growth inhibition of Candida albicans in Sabouraud's glucose broth (Test Example 1)
Assay type: cell-based
protocol_conditions: 10 µg/mℓ; Candida albicans IFO 1270, Sabouraud's glucose broth
Answer with a number only, understood to be in %.

Worked set:
The compound C/C(=C\c1ccc(OCC(F)(F)C(F)F)cc1)C(O)(Cn1cncn1)c1ccc(F)cc1F (racemic) , when measured on Candida albicans IFO 1270, yielded Growth Inhibition (%) of 86

The compound C/C(=C\c1ccccn1)C(O)(Cn1cncn1)c1ccc(F)cc1F (racemic) , when measured on Candida albicans IFO 1270, yielded Growth Inhibition (%) of 84

The compound C/C(=C\c1ccc(C(=O)NNC=O)cc1)C(O)(Cn1cncn1)c1ccc(F)cc1F (racemic) , when measured on Candida albicans IFO 1270, yielded Growth Inhibition (%) of 55

The compound C/C(=C\Sc1ccc(F)cc1)C(O)(Cn1cncn1)c1ccc(F)cc1 (racemic) , when measured on Candida albicans IFO 1270, yielded Growth Inhibition (%) of 83

The compound CC(=O)N1CCN(c2ccc(OC[C@H]3CO[C@](Cn4ccnc4)(c4ccc(Cl)cc4Cl)O3)cc2)CC1 (relative stereo) [compound A, reference compound] , when measured on Candida albicans IFO 1270, yielded Growth Inhibition (%) of 76

The compound C/C(=C\c1ccc(SC(C)(C)C)cc1)C(O)(Cn1cncn1)c1ccc(F)cc1F (racemic) , when measured on Candida albicans IFO 1270, yielded Growth Inhibition (%) of 67

Kindly consider the entry below.
The compound C/C(=C\c1ccc(-c2nc[nH]n2)cc1)C(O)(Cn1cncn1)c1ccc(F)cc1F (racemic) , when measured on Candida albicans IFO 1270, yielded Growth Inhibition (%) of 67
